Each item that follows carries a reported pEC50.
molecular target: human apelin receptor (Homo sapiens, UniProt P35414); construct: expressed in transfected cells; test: Determination of agonism on the human apelin receptor by a calcium fluorescence assay (FLIPR); type: cell-based; conditions: HEK293 cells stably transfected with human apelin receptor and Giaq protein, Fluo-4 calcium fluorescence, read-out: EC50 (APJ agonism)
pEC50: −log10 of the molar value.
Outcome Measure: pEC50

>>> df
                                    compound                            assayed_target  outcome_measure  measured_value
 0  C[C@@H]1CCCC[C@H]1n1c(Cc2cccs2)nc2cc(C(=O)N[C@@H](CC3CCCCC3)[C@H](O)CC(=O)O)ccc21  human apelin receptor (Homo sapiens, UniProt P35414)            pEC50            6.85
 1  CCC(CC)n1c(Cc2cccs2)nc2cc(C(=O)N[C@@H](CC3CCCCC3)[C@H](O)CC(=O)O)ccc21  human apelin receptor (Homo sapiens, UniProt P35414)            pEC50            7.19
 2  CCC(CC)n1c(Cc2cccs2)nc2cc(C(=O)N[C@@H](CC(C)C)C(=O)NC3CCN(Cc4ccncc4)CC3)ccc21  human apelin receptor (Homo sapiens, UniProt P35414)            pEC50            5.90
 3  CCC(C)Cn1c(CC2CCCCC2)nc2cc(C(=O)N[C@@H](CC(C)C)C(=O)O)ccc21 (stereo partly shown)  human apelin receptor (Homo sapiens, UniProt P35414)            pEC50            5.42
 4  CCC(CC)n1c(Cc2cccs2)nc2cc(C(=O)N[C@@H](CC(C)C)C(=O)NCCCN3CCS(=O)(=O)CC3)ccc21  human apelin receptor (Homo sapiens, UniProt P35414)            pEC50            6.00
 5  CCC(CC)n1c(Cc2cccs2)nc2cc(C(=O)N[C@@H](CC(C)C)C(=O)NC3CCN(c4ncccn4)CC3)ccc21  human apelin receptor (Homo sapiens, UniProt P35414)            pEC50            5.53
 6  CCC(CC)n1c(Cc2cccs2)nc2cc(C(=O)N[C@@H](CC(C)C)C(=O)N3CCC[C@H]3C(=O)O)ccc21  human apelin receptor (Homo sapiens, UniProt P35414)            pEC50            6.31
 7  CC(C)C[C@H](NC(=O)c1ccc2c(c1)nc(Cc1ccco1)n2C1CCCCC1C)C(=O)O (single isomer, unassigned) [Example 418]  human apelin receptor (Homo sapiens, UniProt P35414)            pEC50            6.61
 8  CCCC[C@H](NC(=O)c1ccc2c(c1)nc(Cc1cccs1)n2C1CCCCC1C)C(=O)O (single isomer, unassigned) [Example 423]  human apelin receptor (Homo sapiens, UniProt P35414)            pEC50            5.01
 9  CCC(CC)n1c(Cc2cccs2)nc2cc(C(=O)N[C@@H](CCSC)C(=O)O)ccc21  human apelin receptor (Homo sapiens, UniProt P35414)            pEC50            5.73
10  CCC(CC)n1c(Cc2cccs2)nc2cc(C(=O)N[C@H](CC(=N)NO)CC(C)C)ccc21  human apelin receptor (Homo sapiens, UniProt P35414)            pEC50            6.76
11  CCC(C)Cn1c(CC2CCCC2)nc2cc(C(=O)N[C@H](CC(=O)O)CC(C)C)ccc21 (stereo partly shown)  human apelin receptor (Homo sapiens, UniProt P35414)            pEC50            4.82
12  CCCC[C@H](NC(=O)c1ccc2c(c1)nc(Cc1cccs1)n2C1CCCCC1C)C(=O)O (stereo partly shown) [Example 16]  human apelin receptor (Homo sapiens, UniProt P35414)            pEC50            6.93
13  CCCCC(CC(=O)O)NC(=O)c1ccc2c(c1)nc(Cc1cccs1)n2C(CC)CC (stereo not shown) [Example 45]  human apelin receptor (Homo sapiens, UniProt P35414)            pEC50            6.26
14  CCC(CC)n1c(Cc2cccs2)nc2cc(C(=O)N[C@@H](CC(C)C)C(=O)NC)ccc21  human apelin receptor (Homo sapiens, UniProt P35414)            pEC50            6.01
15  CCCCC(CC(=O)O)NC(=O)c1ccc2c(c1)nc(Cc1cccs1)n2[C@@H]1CCCC[C@H]1C (stereo partly shown) [Example 56]  human apelin receptor (Homo sapiens, UniProt P35414)            pEC50            6.80
16  CCC(CC)n1c(Cc2cccs2)nc2cc(C(=O)N[C@@H](CC(C)C)C(=O)NCC(C)(C)CN3CCCCCC3)ccc21  human apelin receptor (Homo sapiens, UniProt P35414)            pEC50            6.39
17  CCC(CC)n1c(CC2CCCC2)nc2cc(C(=O)N[C@H](CC(=O)O)CC(C)C)ccc21  human apelin receptor (Homo sapiens, UniProt P35414)            pEC50            6.29
18  CCC(CC)n1c(Cc2cccs2)nc2cc(C(=O)N[C@@H](CC(C)C)C(=O)NCCCN(C)C)ccc21  human apelin receptor (Homo sapiens, UniProt P35414)            pEC50            6.52
19  CCC(CC)n1c(Cc2cccs2)nc2cc(C(=O)N[C@H](CCC(=O)O)C(C)C)ccc21  human apelin receptor (Homo sapiens, UniProt P35414)            pEC50            5.96
20  CC(C)C[C@H](NC(=O)c1ccc2c(c1)nc(Cc1cccs1)n2C1CCCCC1C)C(=O)O (single isomer, unassigned) [Example 412]  human apelin receptor (Homo sapiens, UniProt P35414)            pEC50            6.97
21  CCC(CC)n1c(Cc2cccs2)nc2cc(C(=O)N[C@@H](CC(C)C)C(=O)NCCN(C)C)ccc21  human apelin receptor (Homo sapiens, UniProt P35414)            pEC50            6.42
22  CCC(CC)n1c(CC2CCCC2)nc2cc(C(=O)N[C@H](CO)CC3CCCCC3)ccc21  human apelin receptor (Homo sapiens, UniProt P35414)            pEC50            5.12
23  CCC(CC)n1c(Cc2cccs2)nc2cc(C(=O)N[C@@H](CC(C)C)C(=O)N3CCSCC3)ccc21  human apelin receptor (Homo sapiens, UniProt P35414)            pEC50            5.66
24  CCC(CC)n1c(Cc2cccs2)nc2cc(C(=O)N[C@@H](CC(C)C)C(=O)NC(C)CCCN(CC)CC)ccc21 (stereo partly shown)  human apelin receptor (Homo sapiens, UniProt P35414)            pEC50            6.32
25  CC(C)C[C@H](NC(=O)c1ccc2c(c1)nc(Cc1cccs1)n2C1CCCC1C)C(=O)O (single isomer, unassigned) [Example 431]  human apelin receptor (Homo sapiens, UniProt P35414)            pEC50            5.46
26  CCC(CC)n1c(Cc2cccs2)nc2cc(C(=O)N[C@@H](CC(C)C)C(=O)N3CCC[C@@H]3COC)ccc21  human apelin receptor (Homo sapiens, UniProt P35414)            pEC50            5.56
27  C[C@@H]1CCCC[C@H]1n1c(Cc2cccs2)nc2cc(C(=O)NC3(C(=O)O)CCCCC3)ccc21  human apelin receptor (Homo sapiens, UniProt P35414)            pEC50            6.94

---

Target: human apelin receptor (Homo sapiens)
Construct: expressed in transfected cells
Sequence (P35414 1-380): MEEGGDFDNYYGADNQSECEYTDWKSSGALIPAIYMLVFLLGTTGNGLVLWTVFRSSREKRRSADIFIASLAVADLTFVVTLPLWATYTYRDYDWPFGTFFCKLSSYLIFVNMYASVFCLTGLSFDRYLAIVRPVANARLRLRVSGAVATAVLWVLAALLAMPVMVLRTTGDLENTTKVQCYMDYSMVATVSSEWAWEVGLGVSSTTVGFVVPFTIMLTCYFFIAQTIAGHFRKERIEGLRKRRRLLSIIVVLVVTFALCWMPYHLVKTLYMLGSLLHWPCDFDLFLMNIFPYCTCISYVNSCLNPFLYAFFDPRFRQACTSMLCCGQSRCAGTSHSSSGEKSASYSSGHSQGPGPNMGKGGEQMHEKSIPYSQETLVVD
Assay: Determination of agonism on the human apelin receptor by a calcium fluorescence assay (FLIPR)
Format: cell-based
Details: HEK293 cells stably transfected with human apelin receptor and Giaq protein, Fluo-4 calcium fluorescence, read-out: EC50 (APJ agonism)
Outcome Measure: log10 EC50 (log10 of the value in µM)

                                   compound  outcome_measure  measured_value
0  CCC(CC)n1c(Cc2cccs2)nc2cc(C(=O)N[C@@H](CC(C)C)C(=O)NC[C@@H]3CCCO3)ccc21       log10 EC50            0.27
1  C[C@@H]1CCCC[C@H]1n1c(Cc2cccs2)nc2cc(C(=O)NC3(CC(=O)O)CCCCC3)ccc21       log10 EC50           -1.06
2  C[C@@H]1CCCC[C@H]1n1c(Cc2cccs2)nc2cc(C(=O)NC(CC(=O)O)C3CCCCC3)ccc21 (single isomer, unassigned) [Example 462]       log10 EC50           -0.86
3  CCC(CC)n1c(Cc2cccs2)nc2cc(C(=O)NC(CC(C)(C)C)C(=O)O)ccc21 (stereo not shown)       log10 EC50            0.59
4  CCC(CC)n1c(Cc2cccs2)nc2cc(C(=O)N[C@@H](CC(C)C)C(=O)NCCN3CCCC3)ccc21       log10 EC50           -0.54
5  CCCOCCNC(=O)[C@H](CC(C)C)NC(=O)c1ccc2c(c1)nc(Cc1cccs1)n2C(CC)CC       log10 EC50            0.40
6  CCC(CC)n1c(CC2CCCC2)nc2cc(C(=O)N[C@@H](CC(C)C)C(=O)O)ccc21       log10 EC50            0.43
